- Target or system: ATP-dependent translocase ABCB1 (Homo sapiens, UniProt P08183)
- Sequence (P08183 whole entry): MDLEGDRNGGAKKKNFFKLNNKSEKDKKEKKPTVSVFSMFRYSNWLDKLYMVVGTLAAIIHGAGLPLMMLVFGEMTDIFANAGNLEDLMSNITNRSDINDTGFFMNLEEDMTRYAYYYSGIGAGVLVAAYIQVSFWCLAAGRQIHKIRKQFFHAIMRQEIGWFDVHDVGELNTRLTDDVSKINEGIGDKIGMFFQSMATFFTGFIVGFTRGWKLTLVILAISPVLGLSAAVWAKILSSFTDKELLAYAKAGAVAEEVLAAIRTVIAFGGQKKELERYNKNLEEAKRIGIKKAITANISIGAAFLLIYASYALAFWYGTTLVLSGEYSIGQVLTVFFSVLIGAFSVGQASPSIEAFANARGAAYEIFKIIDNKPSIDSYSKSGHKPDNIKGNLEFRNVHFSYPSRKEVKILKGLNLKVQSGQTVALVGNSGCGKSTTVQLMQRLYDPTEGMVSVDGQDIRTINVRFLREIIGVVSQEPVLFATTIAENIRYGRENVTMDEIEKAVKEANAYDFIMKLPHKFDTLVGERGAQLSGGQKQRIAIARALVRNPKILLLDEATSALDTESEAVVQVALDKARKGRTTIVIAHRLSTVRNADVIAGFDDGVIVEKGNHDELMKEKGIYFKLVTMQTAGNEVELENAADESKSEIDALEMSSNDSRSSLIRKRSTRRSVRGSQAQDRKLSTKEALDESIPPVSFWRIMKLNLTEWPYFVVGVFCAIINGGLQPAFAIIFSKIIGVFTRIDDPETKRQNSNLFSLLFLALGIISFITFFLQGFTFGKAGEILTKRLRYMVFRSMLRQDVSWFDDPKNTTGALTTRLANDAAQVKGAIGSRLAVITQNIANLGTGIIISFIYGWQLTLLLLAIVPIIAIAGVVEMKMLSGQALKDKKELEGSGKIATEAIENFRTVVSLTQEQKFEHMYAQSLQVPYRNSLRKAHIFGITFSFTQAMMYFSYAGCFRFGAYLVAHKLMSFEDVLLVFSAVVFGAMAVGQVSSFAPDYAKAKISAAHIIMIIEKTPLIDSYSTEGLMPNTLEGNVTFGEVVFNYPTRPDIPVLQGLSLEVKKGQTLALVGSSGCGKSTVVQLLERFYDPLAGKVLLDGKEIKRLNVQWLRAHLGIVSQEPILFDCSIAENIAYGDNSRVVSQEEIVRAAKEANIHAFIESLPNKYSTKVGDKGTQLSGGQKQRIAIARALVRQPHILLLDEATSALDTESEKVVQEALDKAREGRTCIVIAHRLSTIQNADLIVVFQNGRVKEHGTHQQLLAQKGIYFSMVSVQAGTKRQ
- Assay remarks: Inhibition of Pgp in multidrug-resistant human 2780AD cells assessed as vincristine accumulation at 0.1 ug/mL relative to verapamil
- Assay type: cell-based
- Parameters: scale not given: the % may be the effect or the level left
- Measurement conditions: a2780 adr
Property: Activity; scope: individual compounds
Measured endpoint: Activity (%)

1. C=C1[C@@H](OC(C)=O)CC[C@@]2(C)[C@@H](O)[C@H](OC(C)=O)C3=C(C)C[C@H](OC(C)=O)[C@@H]([C@@H](OC(C)=O)[C@H]12)C3(C)C : 79
2. C=C1[C@@H](OC(C)=O)CC[C@@]2(C)C[C@H](OC(=O)/C=C/c3ccccc3)C3=C(C)C[C@H](O)[C@@H]([C@@H](OC(C)=O)[C@H]12)C3(C)C : 105
3. C=C1[C@@H](OC(C)=O)CC[C@@]2(C)C[C@H](OC(=O)/C=C/c3ccccc3)C3=C(C)C[C@H](OC(=O)/C=C/c4ccccc4)[C@@H]([C@@H](OC(C)=O)[C@H]12)C3(C)C : 83
